# key: entry, value: protein stability index
B1: CCDC6 (parent)
chain: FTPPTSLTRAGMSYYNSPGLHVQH

# Variants of: B1
# ASSAY_PROTOCOL: protein stability index of a GFP-peptide fusion (GPS, HEK-293T) (PSI 1-6); higher = more stable;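 also: lentivirally expressed fusions sorted by FACS into six bins by GFP to DsRed ratio, PSI derived from sequencing read proportions per bin multiplied by bin number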
# CONDITION_NOTES: c terminus: a fixed tail appended

L7H | 2.28

Please look at this variant and report its protein stability index: `Y14M` 1.7

Supply recorded protein stability index for `Y15T` here. 2.51

Look up and report measured protein stability index for this entry: `Y14I` 1.64

Answer with the recorded protein stability index for the variant listed here: `T8W` 1.78
